# Test system: RPMI-8226 leukemia
# experimental details: NCI tumour cell line growth inhibition, 48 h
Entries and their TGI values follow.
readout: TGI (µM)

INSERT INTO assay_data (compound, tested_target, value_comparator, observed_value) VALUES
  ('CCCCc1ccc(Nc2nc(=S)c3ncn(COCCO)c3[nH]2)cc1', 'RPMI-8226 leukemia', '=', 54),
  ('Cn1c(=O)c2c(nc3sc4nc5ccccc5nc4n32)n(C)c1=O', 'RPMI-8226 leukemia', '>', 100),
  ('FC(F)(F)c1cccc(Nc2nc3ccccc3nc2Nc2cccc(C(F)(F)F)c2)c1', 'RPMI-8226 leukemia', '=', 3.95),
  ('C=C(C)C(=O)OC1CC2(C)OC(=CC2=O)C(C)CC2OC(=O)C(=C)C12 (centres undefined)', 'RPMI-8226 leukemia', '>', 100),
  ('O=C(N=C1N(c2ccccc2)C(=O)C(=O)N1c1ccccc1)c1ccccc1', 'RPMI-8226 leukemia', '=', 74.9),
  ('CCCCC#COS(=O)(=O)c1ccc(C)cc1', 'RPMI-8226 leukemia', '>', 100),
  ('NC(=O)C1(c2ccccc2)Nc2ccccc2S1 (centres undefined)', 'RPMI-8226 leukemia', '>', 100),
  ('COc1ccc(/C=C/C(=O)c2cccc(B(O)O)c2)cc1O', 'RPMI-8226 leukemia', '=', 33.3),
  ('CCOC(=O)N/N=C(\Cc1ccccc1)OCC', 'RPMI-8226 leukemia', '>', 100),
  ('Nc1ccn(C2OC(CO)C3[O][Sn]([c]4ccccc4)([c]4ccccc4)[O]C32)c(=O)n1 (centres undefined)', 'RPMI-8226 leukemia', '=', 49.1),
  ('COc1ccc2cc3[n+](cc2c1O)CCc1cc2c(cc1-3)OCO2', 'RPMI-8226 leukemia', '>', 100),
  ('Nc1cc2c(nc3c4ccccc4c(N)cc3[n+]2-c2cccc3ccccc23)c2ccccc12 (tested in a mixture with another compound)', 'RPMI-8226 leukemia', '=', 0.851),
  ('COc1ccc(CCn2nccc2C)cc1', 'RPMI-8226 leukemia', '>', 100),
  ('N#CC(=N)c1ncn(CCO)c1NC(=O)C(F)(F)F', 'RPMI-8226 leukemia', '>', 100),
  ('Cc1cccc(C)c1NC(=O)C(=O)C(C#N)c1ccccc1Cl (centres undefined)', 'RPMI-8226 leukemia', '>', 100),
  ('Cn1c(=O)cc(NNc2ccccc2)[nH]c1=O', 'RPMI-8226 leukemia', '=', 48.1),
  ('CN(C)CCCN1c2ccccc2CCc2cccc([N+](=O)[O-])c21', 'RPMI-8226 leukemia', '=', 23.8),
  ('O=C(OCCN1CCCCCC1)C(c1ccsc1)C1CCCCC1 (centres undefined)', 'RPMI-8226 leukemia', '=', 32.1),
  ('O=C(O)CCCn1c(SCc2c(Cl)cccc2Cl)nc2ccsc2c1=O', 'RPMI-8226 leukemia', '>', 100),
  ('CCCCCCCCC1=CCC(CN(C)C)C1=O (centres undefined)', 'RPMI-8226 leukemia', '=', 4.2),
  ('O=C1OC2C(O)COC2(O)C1(O)Cc1c[nH]c2ccccc12 (centres undefined)', 'RPMI-8226 leukemia', '>', 100),
  ('COC(=O)[C@@H](Cc1ccccc1)NNC(=O)OC(C)(C)C', 'RPMI-8226 leukemia', '>', 100),
  ('O=C(Nc1ccn(CCOC(=O)c2ccccc2)c(=O)n1)c1ccccc1', 'RPMI-8226 leukemia', '>', 100),
  ('O=C(/C(=C\c1ccccc1)CN1CCOCC1)c1ccc(Br)cc1', 'RPMI-8226 leukemia', '=', 10.7),
  ('COc1ccc(/C(=N\N=C(N)N)C(c2ccc(OC)cc2)C2OC(=O)c3ccccc32)cc1 (centres undefined)', 'RPMI-8226 leukemia', '>', 100),
  ('NC(N)=C1CN(C2CCCCC2)C(=O)NC1=O', 'RPMI-8226 leukemia', '>', 100),
  ('CN=C(NN)NS(=O)(=O)c1cc(C)c(Cl)cc1S', 'RPMI-8226 leukemia', '>', 100),
  ('CCCCCCC[C@@H](O)CC(=O)NC(CC(C)C)C(=O)NC(CCC(=O)O)C(=O)NC1C(=O)NC(C(C)C)C(=O)NC(CC(C)C)C(=O)NC(CO)C(=O)NC(CC(C)C)C(=O)NC(CO)C(=O)NC(C(C)CC)C(=O)OC1C (some centres undefined)', 'RPMI-8226 leukemia', '=', 33.5),
  ('Cn1ccnc1Sc1ccc(/C=N/NC(=O)c2ccccc2[N+](=O)[O-])cc1[N+](=O)[O-]', 'RPMI-8226 leukemia', '>', 100),
  ('CNc1nc(SC)nc2c1c(N)nn2C', 'RPMI-8226 leukemia', '>', 100),
  ('CCC(C(C)N1CC(=O)NC(=O)C1)N1CC(=O)NC(=O)C1 (centres undefined)', 'RPMI-8226 leukemia', '>', 100),
  ('C[N+](C)=C/C=C(\Cl)c1ccc2ccccc2c1', 'RPMI-8226 leukemia', '=', 14.6),
  ('COc1ccc(P2(=S)Oc3ccc(C(c4ccccc4)(c4ccccc4)c4ccccc4)cc3O2)cc1 (centres undefined)', 'RPMI-8226 leukemia', '=', 48.1),
  ('CN(C)CCNc1ccc(NCCN(C)C)c2c1C(=O)c1ncsc1C2=O', 'RPMI-8226 leukemia', '=', 29.4);

* * *

# System: KM12 colon
# experimental details: NCI tumour cell line growth inhibition, 48 h; in the data active means GI50 below about 0.43 µM; inactive means the rest
Classes used: 1 (yes) (active), 0 (no) (inactive)

INSERT INTO assay_data (molecule, class_name) VALUES
  ('Nc1nc(N)c2cc(CNc3ccc(C(=O)NC(CC(=O)O)C(=O)O)cc3)ccc2n1 (stereo not given)', '1 (yes)'),
  ('CC(=O)[CH-]C(C)=O.CC(=O)[CH-]C(C)=O.[CH2-]CCCCCCC.[CH2-]CCCCCCC.[Sn+4]', '0 (no)'),
  ('COc1ccc2c(c1)C(=O)c1c-2n(CCCNCCO)c(=O)c2ccccc12', '1 (yes)'),
  ('Cn1cc(C2=C(c3cn(CCCO)c4ccccc34)C(=O)NC2=O)c2ccccc21', '0 (no)'),
  ('O=C1OCC2=C1C(c1cccc(Cl)c1)c1cc3c(cc1N2CCO)OCO3 (stereo not given)', '1 (yes)');

* * *

# Test system: SF-268 CNS
# experimental details: NCI tumour cell line growth inhibition, 48 h
readout: TGI

INSERT INTO results (compound, observed_value) VALUES
  ('CN1CCN(CCn2c3c4ccccc4ccc3c3oc(=O)c4ccccc4c32)CC1', '14 µM'),
  ('CCc1n[nH]c(=O)n1NC(=O)CCCC(=O)O', '> 100 µM'),
  ('COc1cc(/C=N/c2nncs2)ccc1O', '> 100 µM'),
  ('c1cc(-c2ccsc2-c2ccsc2)cs1', '> 100 µM'),
  ('Cc1ccc2nc(NC(=O)C(=O)C3C(=O)NC(=S)NC3=O)sc2c1', '> 100 µM'),
  ('O=C1OC2C(O)COC2(O)C1(O)Cc1c[nH]c2ccccc12 (stereo unspecified)', '> 100 µM'),
  ('CCOC(=O)C1=C(C)N(c2ccc(OC)cc2)C2(O)C=CC(=O)C3C(=O)N(c4ccccc4)C(=O)C132 (stereo unspecified)', '18.4 µM'),
  ('CC(=O)OC[C@]1(C)C=C2C(=O)[C@](C)(O)C3(CC3)C(C)=C2[C@H]1OC(=O)N(C)CCN(C)C(=O)OC(C)(C)C', '8.57 µM'),
  ('FC(F)(F)C1(Cl)C(Cl)(c2ccccc2)C1(Cl)c1ccccc1 (stereo unspecified)', '31.7 µM'),
  ('COC(=O)C12CCC(C(F)(F)C1=O)C2(C)C (stereo unspecified)', '> 100 µM'),
  ('Cc1ccc(C2c3c(n(C)c(=O)n(C)c3=O)OC(N(C)C)(N(C)C)C2(F)F)cc1 (stereo unspecified)', '> 100 µM');

* * *

# Tested on: SK-MEL-28 melanoma
# experimental details: NCI tumour cell line growth inhibition, 48 h
readout: TGI

INSERT INTO results (compound, observed_value) VALUES
  ('COC1CC(OC2C(C)OC(OC3C(C)OC(OC4C(C)OC(O[C@H]5CC[C@@]6(C)C(=CC[C@]7(O)[C@@H]6C[C@@H](OC(=O)/C=C/c6ccccc6)[C@@]6(C)[C@]7(O)CC[C@@]6(O)C(C)=O)C5)CC4OC)CC3OC)CC2OC)OC(C)C1O (stereo not given in full)', '> 12.5 µM'),
  ('C=CC(=O)NC(O)(C(=O)OCC)C(F)(F)F (stereo not given)', '> 100 µM'),
  ('Cc1ccc2c(c1)C(=O)c1[nH]c3ccc(F)cc3c1CO2', '> 100 µM'),
  ('O=C(O)C(Cc1c[nH]c2ccccc12)C(=O)NO (stereo not given)', '> 100 µM'),
  ('COc1ccc2cc3[n+](cc2c1O)CCc1cc2c(cc1-3)OCO2', '> 100 µM'),
  ('CC(=O)SSC1(Cl)C(C)(C)C(Cl)(SSC(C)=O)C1(C)C (stereo not given)', '> 100 µM'),
  ('O=c1[nH]nc(Cc2ccccc2)n1/N=C\CC/C=N\n1c(Cc2ccccc2)n[nH]c1=O', '> 100 µM'),
  ('C[N+](C)=C/C=C(\Cl)c1ccc2ccccc2c1', '11.1 µM'),
  ('COc1cccc2c(Nc3ccc(S(=O)(=O)Nc4ncccn4)cc3)c3ccc([N+](=O)[O-])cc3nc12', '> 100 µM'),
  ('Cc1nn2c(C(=O)N/N=C/c3ccccc3O)c(C)nc2s1', '> 100 µM'),
  ('COc1c2c(cc3nc4ccccc4nc13)CC[C@H](NC(C)=O)c1cc(=O)c(SC)ccc1-2', '> 100 µM'),
  ('O=C1OCC2=C1C(c1cccc(Cl)c1)c1cc3c(cc1N2CCO)OCO3 (stereo not given)', '> 100 µM'),
  ('COC(=O)C1=C2SCc3ccc(cc3)CSC3=C(C(=O)OC)SC(=C(S2)S1)S3', '> 100 µM'),
  ('CC(=O)N=C1C=C(NC(C)=O)C(=O)c2ccccc21', '8.04 µM'),
  ('COc1ccc(/C(=N\N=C(N)N)C(c2ccc(OC)cc2)C2OC(=O)c3ccccc32)cc1 (stereo not given)', '> 100 µM'),
  ('CCCNC(=O)C(C)(Cl)C(=O)c1ccccc1O (stereo not given)', '> 100 µM'),
  ('CCOC(=O)/C=C/C1=C(c2csc3ccccc23)c2ccccc2CC1', '> 100 µM'),
  ('Cc1ccc2nc(NC(=O)C(=O)C3C(=O)NC(=S)NC3=O)sc2c1', '> 100 µM'),
  ('N#Cc1c(N)nc(Nc2cccc3ccccc23)c(C#N)c1C#N', '> 10 µM'),
  ('CN1CCN(CC(=O)Nc2cccc3ccccc23)CC1', '> 100 µM'),
  ('CCOC(=O)C(NC(=O)CC(C)C)(NC(C)C)C(F)(F)F (stereo not given)', '> 100 µM'),
  ('COc1ccc(-c2cc(-c3ccc(Nc4ccnc5cc(C(F)(F)F)ccc45)cc3)nc(N)c2C#N)cc1', '> 100 µM'),
  ('Cc1nc2cc(-n3c(-c4ccc(F)cc4)nc4ccccc4c3=O)ccc2n1Cc1ccccc1', '3.94 µM'),
  ('CN=C(NN)NS(=O)(=O)c1cc(C)c(Cl)cc1S', '> 100 µM'),
  ('O=C1CCC(O)=C1N=Nc1cc(Cl)cc(Cl)c1', '> 100 µM'),
  ('Clc1ccc(C2c3ccccc3-c3nccn32)c(Cl)c1 (stereo not given)', '26.5 µM'),
  ('NC(=O)c1cccc(N2Cc3ccccc3OC3=C2C(=O)c2c(O)ccc(O)c2C3=O)c1', '1.5 µM'),
  ('COc1ccc(-c2cc(-c3cc(F)c(Cl)cc3Cl)[nH]n2)cc1OC', '> 100 µM'),
  ('COc1cc(O)c2c(=O)c(OC)c(-c3ccc(OC)c(OC)c3)oc2c1.[Co]', '> 100 µM'),
  ('CC(=O)NC1C(OCc2ccccc2)OC(CO)C(O)C1OCC(=O)N1CCCC1C(=O)N[C@@H](CCC(=O)NCCNCCNc1c2ccccc2nc2cccc([N+](=O)[O-])c12)C(N)=O (stereo not given in full)', '18.2 µM'),
  ('CCN(CC)c1ccc(/C=C2\SC(=O)C(Nc3nnc(-c4cccnc4SCc4ccccc4)o3)C2=O)cc1 (stereo not given)', '36.7 µM'),
  ('Clc1ccc(/C=C2\CCCC3C2=Nc2ccccc2NC3c2ccc(Cl)cc2)cc1 (stereo not given)', '28.4 µM'),
  ('COC(=O)CC1C(C)(C)C(=O)C2CC3=C4CC(=O)OC(c5ccoc5)C4(C)CCC3C1(C)C2=O (stereo not given)', '> 100 µM'),
  ('CNC(=O)N(C1=NCC(C)S1)c1ccc(C)c(C)c1 (stereo not given)', '> 92.8 µM'),
  ('N#Cc1c(-c2ccccc2)c(C#N)c(=S)n(C2OC(CO)C(O)C(O)C2O)c1N (stereo not given)', '> 100 µM'),
  ('NNC1=N/C(=C\c2ccccc2O)C(=O)N1', '> 100 µM'),
  ('NC(=O)N/N=C\c1ccccc1OCc1cccc(COc2ccccc2/C=N\NC(N)=O)n1', '> 100 µM'),
  ('Cc1ccc(O)c(N=Nc2ccc(S(=O)(=O)O)cc2)n1', '> 100 µM'),
  ('CCOC(=O)C1=C(C)N(c2ccc(OC)cc2)C2(O)C=CC(=O)C3C(=O)N(c4ccccc4)C(=O)C132 (stereo not given)', '4.29 µM'),
  ('COc1ccc(C=Nc2c(O)ccc3ccccc23)cc1OC', '> 100 µM');
